system.tested: full length hCDK5/p25 (Homo sapiens, UniProt Q00535)
Sequence (Q00535 whole entry): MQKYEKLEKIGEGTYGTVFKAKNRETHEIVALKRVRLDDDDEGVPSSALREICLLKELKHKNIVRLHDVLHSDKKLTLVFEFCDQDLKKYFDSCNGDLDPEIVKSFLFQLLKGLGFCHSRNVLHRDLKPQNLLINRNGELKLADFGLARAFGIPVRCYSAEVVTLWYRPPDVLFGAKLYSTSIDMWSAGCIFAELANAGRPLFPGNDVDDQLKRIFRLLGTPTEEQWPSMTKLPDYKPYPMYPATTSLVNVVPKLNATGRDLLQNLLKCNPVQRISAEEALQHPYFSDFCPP
Sequence (Q15078 99-307 partner limits assumed): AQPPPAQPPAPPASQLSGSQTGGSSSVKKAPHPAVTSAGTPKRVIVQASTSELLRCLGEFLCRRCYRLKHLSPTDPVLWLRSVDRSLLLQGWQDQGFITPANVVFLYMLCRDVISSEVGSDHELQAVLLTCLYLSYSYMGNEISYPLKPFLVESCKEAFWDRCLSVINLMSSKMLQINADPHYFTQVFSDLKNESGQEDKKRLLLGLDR
method.description: γ-33P ATP filter binding assay, hCDK5/p25
Type: biochemical
assay.context: read-out: CDK5/p25 inhibition @50μM
For each record, write down the corresponding inhibition at 50 µM.
Please give a number only; it is taken to be in %.

inhibition at 50 µM measured on O=C(O)c1cccc(NC(=O)c2cc3c(=O)[nH]c4ccccc4c3s2)c1 [Compound 25u] = 27.4

inhibition at 50 µM recorded for this molecule, NCCCNC(=O)c1cc2c(=O)[nH]c3ccccc3c2s1 [Compound 25k] , is 12.8

Record O=C(Nc1ccccn1)c1cc2c(=O)[nH]c3ccccc3c2s1 [Compound 25v] , field inhibition at 50 µM: 89.9

Entry O=C(Nc1ccccn1)c1cc2c(Cl)nc3ccccc3c2s1 [Compound 25w] ; inhibition at 50 µM = 75.4

// inhibition at 50 µM value for CC(C)(C)OC(=O)NCCNC(=O)c1cc2c(=O)[nH]c3ccccc3c2s1 [Compound 25h] : 23.3

Measured values drawn from paper PMC4254530 for this set.
